The entries below are paired with their reported melting point.

Given item Nc1nc2ccccc2c2c1ncn2Cc1cc(-c2ccc(F)cc2)no1 , the value recorded as its melting point is 259 to 260 °C

Given item N#CC1=C(C2CCNCC2)Nc2n[nH]cc2C1c1cccc(C#N)c1Br (stereo not given) , the value recorded as its melting point is > 270 °C

Given item Nc1n[nH]cc1-c1ccc(Cc2ccccc2)cc1 , the value recorded as its melting point is 127 to 130 °C

Given item C=CC(CC(=O)Nc1ccc(F)cc1)C(C)C (stereo not given) , the value recorded as its melting point is 74 to 75 °C

Given item COCc1cccc(CNC(=O)c2nc3scc(COCc4ccc(C(=O)O)cc4)c3c(=O)[nH]2)c1 , the value recorded as its melting point is 242 to 244 °C

Given item CCc1cnc2c(NC(=O)c3c(Cl)cccc3Cl)cccc2c1CN1CCN(C)C1=O , the value recorded as its melting point is 202 to 203 °C

Given item CN(C)c1ccccc1Sc1nc2ccccc2[nH]1 , the value recorded as its melting point is 148 to 149 °C

Given item CCCc1nc2c(N)nc3cc(OCc4ccccc4C)ccc3c2n1CC(C)C , the value recorded as its melting point is 228 °C

Given item CC1CC(=O)c2cc(OCc3ccccc3)cnc2C1 (stereo not given) , the value recorded as its melting point is 80.5 to 81.5 °C

Given item OCCOc1nccc(-c2c(-c3ccc(F)cc3)ncn2C2CCC(O)CC2)n1 (stereo not given) , the value recorded as its melting point is 191 to 193 °C
